Measured pIC50, listed per entry for reference.
Molecular target: C150 protein (Hepatitis B virus genotype D subtype adw, UniProt P03147, C107A/C48A/C61A/R150C)
Construct: purchased WuXi Apptec Co., Ltd
Sequence (P03147 1-150 C48A/C61A/C107A/R150C): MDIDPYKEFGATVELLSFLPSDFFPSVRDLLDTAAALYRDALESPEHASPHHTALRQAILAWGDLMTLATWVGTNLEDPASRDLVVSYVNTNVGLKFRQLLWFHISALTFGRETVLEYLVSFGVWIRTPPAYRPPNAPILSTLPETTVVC
Experiment: In vitro anti-HBV nucleocapsid assembly activity test (Experiment 1, protein experiment)
Type: biochemical
Conditions: fluorescently labeled C150 (C150Bo) 1.5 μM, 150 mM NaCl, 1 hour at room temperature; read-out: Experiment 1 Protein experiment IC50
pIC50: −log10 of the molar value.

{"COMPOUND": "Cc1c(NS(=O)(=O)NC2(C)COC2)c2n(c1C(=O)Nc1ccc(F)c(F)c1)CCC2 [Compound 90g]", "pIC50": "4.00 to 6.00"}
{"COMPOUND": "CC(NS(=O)(=O)c1c2[nH]ccc2c(C(=O)Nc2cc(F)nc(C#N)c2)n1C)C(F)(F)F (centres unmarked) [Compound 80d]", "pIC50": "4.00 to 6.00"}
{"COMPOUND": "C[C@@H](NS(=O)(=O)c1c(Cl)c(C(=O)Nc2ccc(F)c(F)c2)n2c1C=CC2)C(F)(F)F [Compound 10a]", "pIC50": "4.00 to 6.00"}
{"COMPOUND": "Cc1c(S(=O)(=O)NC(C)C(F)(F)F)c2n(c1C(=O)Nc1ccc(F)c(C#N)c1)CCCC2 (centres unmarked) [Compound 40f]", "pIC50": "4.00 to 6.00"}
{"COMPOUND": "CC(CO)NS(=O)(=O)Nc1c(Cl)c(C(=O)Nc2cc(F)nc(C#N)c2)n2c1CCC2 (centres unmarked) [Compound 90f]", "pIC50": "4.00 to 6.00"}
{"COMPOUND": "N#Cc1cc(NC(=O)c2c(Cl)c(S(=O)(=O)NC3C4CCC3CC(O)(CO)C4)c3n2CCC3)cc(F)n1 (centres unmarked) [Compound 20ll]", "pIC50": "4.00 to 6.00"}
{"COMPOUND": "CC(CO)NC(=O)Nc1c(Cl)c(C(=O)Nc2cc(F)nc(C#N)c2)n2c1CCCC2 (centres unmarked) [Compound 100p]", "pIC50": "4.00 to 6.00"}
{"COMPOUND": "Cc1c(NS(=O)(=O)NC2(C)COC2)c2n(c1C(=O)Nc1cc(F)nc(C#N)c1)CCC2 [Compound 90h]", "pIC50": "4.00 to 6.00"}
{"COMPOUND": "Cc1c(S(=O)(=O)NC2C3CCC2CC(O)(CO)C3)c2n(c1C(=O)Nc1ccc(F)c(F)c1)CCC=C2 (centres unmarked) [Compound 30r]", "pIC50": "4.00 to 6.00"}
{"COMPOUND": "Cc1c(S(=O)(=O)NC2C3CCC2CC(O)(c2cc(-c4ccccc4)on2)C3)c2n(c1C(=O)Nc1cc(F)nc(C#N)c1)CCC=C2 (centres unmarked) [Compound 30t]", "pIC50": "4.00 to 6.00"}
{"COMPOUND": "Cc1c(S(=O)(=O)NC(C)CO)c2n(c1C(=O)Nc1ccnc(C(F)F)c1)CCC2 (centres unmarked) [Compound 20ii]", "pIC50": "4.00 to 6.00"}
